- Assay: in vivo
- Design: species or system Lewis rats
- Condition details: rat, 5 mg/kg
Readout name: concentration at 0.25 h (ng/mL)
# output: bare number, implied unit ng/mL

>>> result_number("C=CC[C@@H]1/C=C(\\C)C[C@H](C)C[C@H](OC)[C@H]2O[C@@](O)(C(=O)C(=O)N3CCCC[C@H]3C(=O)O[C@H](/C(C)=C/[C@@H]3CC[C@@H](O)[C@H](OC)C3)[C@H](C)[C@@H](O)CC1=O)[C@H](C)C[C@@H]2OC [FK-506, reference compound]")
1140

Data request, read-out concentration at 0.25 h, for CC[C@@H]1/C=C(\C)C[C@H](C)C[C@H](OC)[C@H]2O[C@@](O)(C(=O)C(=O)N3CCCC[C@H]3C(=O)O[C@H](/C(C)=C/[C@@H]3CC[C@@H](OS(N)(=O)=O)[C@H](OC)C3)[C@H](C)[C@@H](O)CC1=O)[C@H](C)C[C@@H]2OC 1400
